Target entity: recombinant human LTA4 hydrolase (Homo sapiens, UniProt P09960)
Sequence (P09960 whole entry): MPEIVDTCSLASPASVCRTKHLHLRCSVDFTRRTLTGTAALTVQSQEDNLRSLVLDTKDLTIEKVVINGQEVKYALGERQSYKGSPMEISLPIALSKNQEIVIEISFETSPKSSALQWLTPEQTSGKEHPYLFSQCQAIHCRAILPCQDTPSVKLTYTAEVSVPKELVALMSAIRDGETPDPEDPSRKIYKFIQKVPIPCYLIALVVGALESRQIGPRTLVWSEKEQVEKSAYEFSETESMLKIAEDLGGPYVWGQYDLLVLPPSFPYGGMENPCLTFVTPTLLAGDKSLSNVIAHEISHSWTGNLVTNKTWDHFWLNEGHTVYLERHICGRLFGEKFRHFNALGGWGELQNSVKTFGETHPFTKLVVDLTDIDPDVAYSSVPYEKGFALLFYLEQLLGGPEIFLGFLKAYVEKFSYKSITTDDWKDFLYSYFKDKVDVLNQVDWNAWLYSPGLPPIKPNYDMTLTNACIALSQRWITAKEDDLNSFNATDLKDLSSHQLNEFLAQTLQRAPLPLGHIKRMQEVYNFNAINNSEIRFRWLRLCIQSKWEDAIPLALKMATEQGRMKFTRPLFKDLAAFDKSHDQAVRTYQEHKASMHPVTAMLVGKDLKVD
Assay overview: LTA4 hydrolase homogeneous time resolved fluorescence (HTRF) assay
Assay type: biochemical
Applied conditions: read-out: inhibit LTA4 hydrolase activity, IC50 value
Cut-off 60 nM on IC50: below means true, at or above means false.

Molecule | Discrete label
CNC(=O)C(N)CCC(=O)Nc1ccc(OCc2ccccc2)cc1 (stereo not shown) [Example 1] | true
N[C@H](CCC(=O)Nc1ccc(Oc2ccc(-n3cccc3)cc2)cc1)C(=O)NCCc1cnc[nH]1 [Example 9] | true
NC(CCC(=O)Nc1ccc(Oc2ccccc2)cc1)C(=O)NCCCl (stereo not shown) [Example 3] | true
NC(CCC(=O)NCCN1CCCC1)C(=O)Nc1ccc(Oc2ccc(-n3cccc3)cc2)cc1 (stereo in doubt) [Example 7] | true
NC(=O)C(N)CCC(=O)Nc1ccc(Oc2ccccc2)cc1 (stereo not shown) [Example 2] | false
CCOC(=O)CCNC(=O)[C@H](N)CCC(=O)Nc1ccc(Oc2ccccc2)cc1 [Example 10] | false
COC(=O)[C@@H](N)CCC(=O)Nc1ccc(Oc2ccc(-n3cccc3)cc2)cc1 [Example 4] | true

====

Target entity: LTA4 hydrolase peptidase activity (Homo sapiens)
Sequence (P09960 whole entry): as above
Assay overview: Peptidase assay (hydrolysis of L-alanine-p-nitroanilide)
Type: biochemical
Applied conditions: Table 1; read-out: Peptidase IC50
IC50 values by entry
Attribute measured: IC50 (nM)

Structure string | Recorded result
N[C@@H](CCC(=O)Nc1ccc(OCc2ccccc2)cc1)C(=O)NCc1ccccc1 | 118
CC(C)(C)OC(=O)[C@@H](N)CCC(=O)Nc1ccc(CCC(=O)c2ccccc2)cc1 | 146
COC(=O)[C@@H](N)CCC(=O)Nc1ccc(OCC(=O)c2ccccc2)cc1 | 31

====

Target entity: LTA4 hydrolase peptidase activity (Homo sapiens)
Assay overview: Peptidase assay (hydrolysis of L-alanine-p-nitroanilide)
Assay type: biochemical
Applied conditions: read-out: inhibit peptidase activity, IC50 value
Protocol: Inhibition of peptidase activity was measured for the compounds of the invention by using methods similar to those described in Kull, F. et al., The Journal of Biological Chemistry 1999, 274 (49): 34683-34690. In brief, the enzyme (29 nM) was incubated with L-alanine-p-nitroanilide (1 mM) in 50 mM HEPES (pH 7.5), 100 mM KCL, 1% DMSO in the absence or presence of a compound of the invention for 1 hour at ambient temperature. Reaction was terminated by addition of acetic acid (1%). […]
Documented IC50 across a set of compounds

Compound | IC50
CCOC(=O)CCNC(=O)[C@H](N)CCC(=O)Nc1ccc(Oc2ccccc2)cc1 | 40 nM
COC(=O)CCC(=O)NCC(N)CCC(=O)Nc1ccc(Oc2ccccc2)cc1 (stereo in doubt) | 215 nM
NC(=O)C(N)CCC(=O)Nc1ccc(Oc2ccccc2)cc1 (stereo not shown) | 22 nM
N[C@H](CCC(=O)Nc1ccc(Oc2ccc(-n3cccc3)cc2)cc1)C(=O)NCCc1cnc[nH]1 | 53 nM
NC(CCC(=O)Nc1ccc(Oc2ccccc2)cc1)C(=O)NCCCl (stereo not shown) | 24 nM
CNC(=O)C(N)CCC(=O)Nc1ccc(OCc2ccccc2)cc1 (stereo not shown) | 24 nM
COC(=O)[C@@H](N)CCC(=O)Nc1ccc(Nc2ccccc2)cc1 | 213 nM
NC(CCC(=O)NCCN1CCCC1)C(=O)Nc1ccc(Oc2ccc(-n3cccc3)cc2)cc1 (stereo in doubt) | 25 nM
COC(=O)[C@@H](N)CCC(=O)Nc1ccc(Oc2ccc(-n3cccc3)cc2)cc1 | 21 nM
COC(=O)[C@@H](N)CCC(=O)Nc1ccc(OCC(O)c2ccccc2)cc1 (stereo partly shown) | 21 nM
